Provide the recorded melting point for the entries that follow.

Please look up its melting point: Fc1ccc(-c2[nH]ncc2-c2ccnc(NC3CC3)n2)cc1
203 to 204 °C

Another compound to check: CN1CCN(c2n[nH]c(-c3ccc(N(C)C)cc3)c2-c2ccncc2)CC1
> 300 °C (dec.)

Another compound to check: Clc1ccccc1-c1[nH]ncc1-c1ccncc1
208.46 °C

Another compound to check: CN1CCC(N(C)c2[nH]nc(-c3ccc(Cl)cc3)c2-c2ccncc2)CC1 (hydrate or solvate)
260 to 261 °C

Another compound to check: COc1ccc(-c2[nH]nc(N3CCN(C)CC3)c2-c2ccncc2)cc1Cl
272.7 to 276.4 °C

Another compound to check: CN1CCN(c2n[nH]c(-c3ccc(I)cc3)c2-c2ccncc2)CC1
265.2 to 265.8 °C

Another compound to check: CCOC(=O)Nc1nccc(-c2cn[nH]c2-c2ccc(F)cc2)n1
163 to 165 °C

Another compound to check: COc1cc(-c2c(-c3ccncc3)c(-c3ccc(F)cc3)nn2CCO)ccn1
168 to 169 °C

Another compound to check: CN1CCN(c2[nH]nc(-c3cccc(Br)c3)c2-c2ccncc2)CC1
222.5 to 223.4 °C
